- assay_details: Drug repurposing screens with cells derived from glioblastoma tumor samples (AID 1345199); also: % is scaled to controls: 0 for no effect and ±100 for the full control effect; nearly all actives have a fitted effect of over 40% in size
- test_settings: GBM patient neurospheres viability, ATP luminescence, 48 h; at 45.9 µM (top of the series); tumour line B
Records with an inconclusive call do not appear.
Answer each item with its documented activity, negative = cell killing.
One number for each entry, in %.

The following compounds have reported results that may help.
NC(N)=NCCCCN=C(N)N | -8.5
Cc1ccc(/C=N/n2c(-c3ccccc3)csc2=S)cc1 | -0.779
O=C1[C@@H]2[C@H]3CC[C@H](C3)[C@@H]2C(=O)N1CCCCN1CCN(c2ncccn2)CC1 | -7.9
CO[C@@H]1[C@@H](O[C@@H]2O[C@H](C)[C@@H](O[C@H]3C[C@@](C)(O)[C@@H](O)[C@H](C)O3)[C@H](N(C)C)[C@H]2O)[C@@H](CC=O)C[C@@H](C)[C@@H](O[C@@H]2CC[C@H](N(C)C)[C@@H](C)O2)/C=C/C=C/C[C@@H](C)OC(=O)C[C@H]1OC(C)=O | -18.6
OC(CCCN1CCCCC1)(c1ccccc1)c1ccccc1 | 9.15
Cc1ncc(CO)c(CO)c1O | 0.285
OC[C@]1(O)OC[C@@H](O)[C@H](O)[C@@H]1O | 6.45
NCC(=O)O | 10.4

Respectfully, I request activity, negative = cell killing for each entry included below.
1. O=C1OC2(c3ccccc31)c1cc(I)c(O)c(I)c1Oc1c2cc(I)c(O)c1I
2. O=C(O)[C@@H](O)[C@H](O)[C@H](O)[C@@H](O)C(=O)O
3. C[C@]12CCC(=O)C=C1CC[C@@H]1[C@@H]2[C@@H](O)C[C@@]2(C)[C@H]1CC[C@]2(O)C(=O)COC(=O)CCC(=O)O
4. CCN1CCN(C(=O)N[C@@H](C(=O)N[C@@H]2C(=O)N3[C@@H]2SC(C)(C)[C@H]3C(=O)O)c2ccccc2)C(=O)C1=O
5. O=C(Oc1ccccc1)c1ccccc1O
6. CN(C(=O)C(Cl)Cl)c1ccc(OC(=O)c2ccco2)cc1

-23.6
-15.2
-2.56
-6.11
-4.53
-5.88

Respectfully, I request activity, negative = cell killing for each entry included below.
1. CCO[C@H](Cc1ccc(OCCc2ccc(OS(C)(=O)=O)cc2)cc1)C(=O)O
2. CCCC(=O)O[C@]1(C(=O)COC(=O)CC)CC[C@H]2[C@@H]3CCC4=CC(=O)CC[C@]4(C)[C@H]3[C@@H](O)C[C@@]21C
3. NC(=O)COCCN1CCN(C(c2ccccc2)c2ccc(Cl)cc2)CC1 (stereo not given)
4. O=C(O)/C=C(\CC(=O)O)C(=O)O
5. OCCc1ccccc1
6. C[C@H](CN1CCCC1)C(=O)c1ccc(C(F)(F)F)cc1

1. -8.78
2. -1.31
3. -14
4. -11.5
5. -16.7
6. -26.9

* * *

- Tested on: WaGa
- assay_details: qHTS assay to identify novel small-molecules to repurpose for Merkel cell carcinoma treatment (AID 1296009); also: nearly all actives have a fitted effect of over 60% in size
- test_settings: MCC and control cell lines, CellTiter-Glo viability, 72 h; series mostly up to 46 µM
Inconclusive results are not listed. Active and inactive are the calls of the source. The call rests on the fitted dose curve; in most records, active means well fitted inhibition curve with a large enough effect; inconclusive means small, poorly fitted or top-dose-only effect; inactive means flat fitted curve, though single readings scatter.
Hello, when you answer, please use one of the following outcomes: active, inactive

See these solved cases before continuing.
O=C(O)[C@@H](O)[C@H](O)[C@H](O)[C@@H](O)C(=O)O | inactive
O=C1c2ccccc2CCc2ccccc21 | inactive
CC(C)C(=O)Nc1cccc(C2CN3CCSC3=N2)c1 (stereo not given) | inactive
CCC(CN)=C(c1ccccc1)c1ccccc1 | inactive
CC(=O)N(c1onc(C)c1C)S(=O)(=O)c1ccc(N)cc1 | inactive
CN1Cc2cc(C(=O)N3CCC(C4CCNCC4)CC3)ccc2NC(CC(=O)O)C1=O (stereo not given) | inactive
CCOC(=O)Cn1cccc1-c1nc(-c2ccc(OC)cc2)c(-c2ccc(OC)cc2)s1 | inactive
CCC(=O)O[C@H]1[C@H](O[C@@H]2[C@@H](C)[C@H](O[C@H]3C[C@@](C)(OC)[C@@H](O)[C@H](C)O3)[C@@H](C)C(=O)O[C@H](CC)[C@@](C)(O)[C@H](O)[C@@H](C)C(=O)[C@H](C)C[C@@]2(C)O)O[C@H](C)C[C@@H]1N(C)C | inactive

I would be grateful if you could indicate the recorded call for "CCCCCCCCCCCC[N+](C)(C)Cc1ccccc1" . active

I would be grateful if you could indicate the recorded call for "O=C1CCCc2c(O)cccc21" . inactive

I would be grateful if you could indicate the recorded call for "O=C(O)Cn1cnnn1" . inactive

I would be grateful if you could indicate the recorded call for "CCOC(=O)Oc1ccc(CCNC(=O)[C@H](CCSC)NC(C)=O)cc1OC(=O)OCC" . inactive

I would be grateful if you could indicate the recorded call for "O=[N+]([O-])c1nccn1CO[C@@H](CO)[C@H](O)CO" . inactive

I would be grateful if you could indicate the recorded call for "O=C1CC(c2ccc(Cl)cc2)CC(=O)N1" . inactive

I would be grateful if you could indicate the recorded call for "CCCc1ccc(OCC(=O)N2CCN(C(=O)COc3ccc(CCC)cc3OC)CC2)c(OC)c1" . inactive

I would be grateful if you could indicate the recorded call for "O=C(O)CNC(=O)CNC(=O)CNC(=O)CSC(=O)c1ccccc1" . inactive

I would be grateful if you could indicate the recorded call for "CCOC(=O)NNc1nncc2ccccc12" . inactive

I would be grateful if you could indicate the recorded call for "CN(C)CCCOC1(Cc2ccccc2)CCCCCC1" . inactive

I would be grateful if you could indicate the recorded call for C[C@@H]1CCC[C@H](C)N1CCCC(O)(c1ccccc1)c1ccccn1 (stereo not given in full) . inactive

I would be grateful if you could indicate the recorded call for "Cc1cc(C(C)(C)C)c(O)c(C(C)(C)C)c1" . inactive

I would be grateful if you could indicate the recorded call for "CC(C)=CCC/C(C)=C/CC/C(C)=C/CCC(=O)OC/C=C(\C)CCC=C(C)C" . inactive

I would be grateful if you could indicate the recorded call for "C[C@@H](C1=C(CCN(C)C)Cc2ccccc21)c1ccccn1" . inactive

I would be grateful if you could indicate the recorded call for "CC(=O)Nc1c(I)c(NC(C)=O)c(I)c(C(=O)O)c1I" . inactive

I would be grateful if you could indicate the recorded call for "c1ccc2occc2c1" . inactive

I would be grateful if you could indicate the recorded call for "CCCCCCCCCCCCCCCC[n+]1ccccc1" . active

I would be grateful if you could indicate the recorded call for "CC(=O)[C@H]1CC[C@H]2[C@@H]3C=CC4=CC(=O)CC[C@@]4(C)[C@@H]3CC[C@]12C" . inactive

* * *

- assay_details: Drug repurposing screens with cells derived from glioblastoma tumor samples (AID 1345199); also: % is scaled to controls: 0 for no effect and ±100 for the full control effect; nearly all actives have a fitted effect of over 40% in size
- test_settings: GBM patient neurospheres viability, ATP luminescence, 48 h; at 45.9 µM (top of the series); tumour line D
Results filed as inconclusive are left out.
Answer each item with its documented activity, negative = cell killing.
Numbers only, in %.

The following compounds have reported results that may help.
O=C(CCCCCCCCC#CI)Oc1ccccc1 | -0.884
O=C(CO)[C@@H](O)[C@H](O)[C@@H](O)CO | -8.89
CCOc1ccc(NS(=O)(=O)c2ccc(N)cc2)nn1 | 5.52
CN=C(N)NC(=O)Nc1c(C)cccc1C | -0.753
CC(=O)OCC(=O)[C@@]1(O)CCC2C3CCC4=CC(=O)CC[C@]4(C)C3[C@@H](O)C[C@@]21C (some centres not stated) | -11.4

Respectfully, I request activity, negative = cell killing for each entry included below.
1. CC(C(=O)O)c1ccc(/C=C2\CCCCC2=O)cc1 (configuration not stated)
2. CC(COc1ccccc1)NN (configuration not stated)
3. CC1(C)S[C@@H]2[C@H](NC(=O)C(c3ccccc3)S(=O)(=O)O)C(=O)N2[C@H]1C(=O)O (some centres not stated)
4. C[N+](C)(CCOc1ccccc1)Cc1cccs1
5. CCOC(=O)NNc1nncc2ccccc12
6. CCCCCC1Nc2cc(C(F)(F)F)c(S(N)(=O)=O)cc2S(=O)(=O)N1 (configuration not stated)
7. CO/N=C(/C(=O)N[C@@H]1C(=O)N2C(C(=O)OCOC(=O)C(C)(C)C)=C(C)CS[C@H]12)c1csc(N)n1

-17
14.4
-16.5
-8.83
-7.16
-19.1
4.02

* * *

- measured_on: Cytochrome P450 2C9 (Homo sapiens)
- assay_details: Cytochrome P450 family 2 subfamily C member 9 (CYP2C9) small molecule antagonists: luciferase biochemical (cell-free) qHTS assay (AID 1645842); also: nearly all actives have a fitted effect of over 55% in size
- test_settings: P450-Glo CYP2C9 enzyme assay, luciferin luminescence; series mostly up to 57.4 µM
Results filed as inconclusive are left out. Calls of active or inactive are those of the source. Calls come from the whole dose curve; as a rule, active = well fitted inhibition curve with a large enough effect in the repeat runs; inconclusive = weak or mixed curves; inactive = no such curve, though single readings can be large or run the other way.
Hello, when you answer, please use one of the following outcomes: label 1 (active), label 0 (inactive)

CCC(=O)O[C@H]1[C@H](O[C@@H]2[C@@H](C)[C@H](O[C@H]3C[C@@](C)(OC)[C@@H](O)[C@H](C)O3)[C@@H](C)C(=O)O[C@H](CC)[C@@](C)(O)[C@H](O)[C@@H](C)C(=O)[C@H](C)C[C@@]2(C)O)O[C@H](C)C[C@@H]1N(C)C | label 0
Cc1coc2ccccc2c1=O | label 0
CCC(=O)O[C@]1(C(=O)COC)[C@@H](C)C[C@H]2[C@@H]3CCC4=CC(=O)C=C[C@]4(C)C3(F)[C@@H](O)C[C@@]21C (some centres undefined) | label 1
CN1CCN(N)CC1 | label 0

I would be grateful if you could indicate the recorded call for "CCCCCCOC(=O)NC(=N)c1ccc(NCc2nc3cc(C(=O)N(CCC(=O)OCC)c4ccccn4)ccc3n2C)cc1" . label 1

I would be grateful if you could indicate the recorded call for "COc1cc(C=O)ccc1O" . label 0

I would be grateful if you could indicate the recorded call for "Nc1ccc(C(=O)N2CC3CC(CN(Cc4ccccc4)C3)C2)cc1" . label 0

I would be grateful if you could indicate the recorded call for "CCN(CC)CC(=O)OCC(=O)[C@@]1(O)CC[C@H]2[C@@H]3CCC4=CC(=O)CC[C@]4(C)[C@H]3[C@@H](O)C[C@@]21C" . label 0

I would be grateful if you could indicate the recorded call for COc1ccccc1OCC1CNC(=O)O1 (centres undefined) . label 0
